Biological target: human polyclonal IgG (human)
Assay: ITC at 25 C, peptide titrated into polyclonal IgG in PBS pH 7.4, independent single-site fit
experimental readout: Kd (µM)

binder	recorded value
WQRHGI [WQRHGI (SEQ ID NO:1)]	58.8
